Documented GI50 across a set of compounds
Target: EGFR Exon 20 INSNPH Ba/F3 (Homo sapiens, UniProt P00533, DUP771-773, cells depend on it)
Sequence (P00533 with tags, fused parts or gaps DUP771-773): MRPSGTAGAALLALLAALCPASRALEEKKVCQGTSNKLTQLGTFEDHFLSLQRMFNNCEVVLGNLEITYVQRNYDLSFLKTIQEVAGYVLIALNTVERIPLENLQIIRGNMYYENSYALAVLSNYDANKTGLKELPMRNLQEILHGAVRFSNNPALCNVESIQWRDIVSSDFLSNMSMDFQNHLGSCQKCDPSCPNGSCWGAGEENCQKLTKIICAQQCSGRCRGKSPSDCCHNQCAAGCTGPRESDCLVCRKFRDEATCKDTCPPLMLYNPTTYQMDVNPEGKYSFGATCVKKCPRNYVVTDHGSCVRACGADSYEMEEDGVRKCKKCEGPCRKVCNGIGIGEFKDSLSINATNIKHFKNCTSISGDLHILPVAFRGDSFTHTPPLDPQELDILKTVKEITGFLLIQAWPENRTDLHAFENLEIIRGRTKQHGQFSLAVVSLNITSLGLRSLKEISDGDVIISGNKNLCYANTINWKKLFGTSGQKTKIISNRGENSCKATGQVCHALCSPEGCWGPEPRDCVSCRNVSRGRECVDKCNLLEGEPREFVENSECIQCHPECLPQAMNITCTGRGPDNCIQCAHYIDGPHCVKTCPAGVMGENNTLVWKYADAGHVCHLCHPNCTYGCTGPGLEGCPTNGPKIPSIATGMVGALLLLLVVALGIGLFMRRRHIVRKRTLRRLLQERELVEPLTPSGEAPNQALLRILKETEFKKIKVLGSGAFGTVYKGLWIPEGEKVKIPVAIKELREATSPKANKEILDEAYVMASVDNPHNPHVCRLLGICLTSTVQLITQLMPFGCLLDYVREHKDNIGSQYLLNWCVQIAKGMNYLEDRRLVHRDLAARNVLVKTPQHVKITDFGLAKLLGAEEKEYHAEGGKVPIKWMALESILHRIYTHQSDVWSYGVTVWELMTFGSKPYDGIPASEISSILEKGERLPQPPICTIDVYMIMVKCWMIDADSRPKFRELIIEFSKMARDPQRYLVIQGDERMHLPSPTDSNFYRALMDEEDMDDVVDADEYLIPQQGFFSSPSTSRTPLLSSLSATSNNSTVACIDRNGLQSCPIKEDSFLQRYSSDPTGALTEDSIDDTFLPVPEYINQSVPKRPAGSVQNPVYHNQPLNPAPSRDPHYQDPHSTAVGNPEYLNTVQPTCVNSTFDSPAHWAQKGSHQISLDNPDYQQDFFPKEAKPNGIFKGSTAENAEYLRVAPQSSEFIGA
Experiment: EGFR Exon 20 INSNPH Ba/F3 CellTiter-Glo
Format: cell-based
Settings: CellTiter-Glo, 72 h, read-out: EGFR Exon 20 INSNPH Ba/F3 CTG IC50
Experimental: 2. Measurement of Cellular Activity The CellTiter-Glo Luminescent Cell Viability Assay (Promega) is a homogeneous method of determining the number of viable cells in culture. It is based on quantification of ATP, indicating the presence of metabolically active cells. […] Following incubation the luminescence is recorded on a Victor microplate reader (Perkin Elmer) using a 200 ms integration time. The data is then analyzed with Excel using the XLFIT Plugin (dose response Fit 205) for IC50-determination. […]

[
  {
    "compound": "C=CC(=O)Nc1cc(-c2c(-c3ccnc(N4CCN(C)CC4)c3)[nH]c3nccc(Cl)c23)ccc1C",
    "GI50": "100 to 500 nM"
  },
  {
    "compound": "C=CC(=O)Nc1cc(-c2c(-c3ccc(N4CCOCC4)nc3)[nH]c3ncc(C(=O)OC(C)C)cc23)ccc1C",
    "GI50": "1000 to 10000 nM"
  },
  {
    "compound": "C=CC(=O)Nc1cc(-c2c(-c3ccc(N4CCOCC4)nc3)[nH]c3nccc(Cl)c23)ccc1C",
    "GI50": "500 to 1000 nM"
  },
  {
    "compound": "C=CC(=O)Nc1cc(-c2c(-c3ccc(CN(C)C)cc3)[nH]c3ncc(C(=O)OC(C)C)cc23)cc(F)c1C",
    "GI50": "100 to 500 nM"
  },
  {
    "compound": "C=CC(=O)Nc1cc(-c2c(-c3ccc(CN4CCOCC4)cc3)[nH]c3nccc(Cl)c23)ccc1C",
    "GI50": "100 to 500 nM"
  },
  {
    "compound": "C=CC(=O)Nc1cc(-c2c(-c3cccc(C(=O)NC4CC4)c3)[nH]c3nccc(Cl)c23)ccc1C",
    "GI50": "1000 to 10000 nM"
  },
  {
    "compound": "C=CC(=O)N1CCc2ccc(-c3c(-c4ccc(N5CCN(C)CC5)c(F)c4)[nH]c4nccc(Cl)c34)cc21",
    "GI50": "500 to 1000 nM"
  },
  {
    "compound": "C=CC(=O)N1CCCc2ccc(-c3c(-c4ccc(N5CCN(C(C)C)CC5)cc4)[nH]c4nccc(Cl)c34)cc21",
    "GI50": "500 to 1000 nM"
  },
  {
    "compound": "C=CC(=O)Nc1cc(-c2c(-c3cccc(C(=O)N4CCN(C(C)=O)CC4)c3)[nH]c3nccc(Cl)c23)ccc1C",
    "GI50": "1000 to 10000 nM"
  },
  {
    "compound": "C=CC(=O)Nc1cc(-c2c(-c3ccc(N4CCN(C)CC4)nc3)[nH]c3ncc(C(=O)OC(C)C)cc23)ccc1C",
    "GI50": "500 to 1000 nM"
  },
  {
    "compound": "C=CC(=O)Nc1cc(-c2c(-c3ccc(CN4CCN(C)CC4)cc3)[nH]c3nccc(Cl)c23)ccc1C [Example 1, 2,2,2-trifluoroacetate]",
    "GI50": "≤ 100 nM"
  }
]
